Target: CpLIP2 lipase (Candida parapsilosis, UniProt Q8NIN8)
Sequence (Q8NIN8 entry or part of it): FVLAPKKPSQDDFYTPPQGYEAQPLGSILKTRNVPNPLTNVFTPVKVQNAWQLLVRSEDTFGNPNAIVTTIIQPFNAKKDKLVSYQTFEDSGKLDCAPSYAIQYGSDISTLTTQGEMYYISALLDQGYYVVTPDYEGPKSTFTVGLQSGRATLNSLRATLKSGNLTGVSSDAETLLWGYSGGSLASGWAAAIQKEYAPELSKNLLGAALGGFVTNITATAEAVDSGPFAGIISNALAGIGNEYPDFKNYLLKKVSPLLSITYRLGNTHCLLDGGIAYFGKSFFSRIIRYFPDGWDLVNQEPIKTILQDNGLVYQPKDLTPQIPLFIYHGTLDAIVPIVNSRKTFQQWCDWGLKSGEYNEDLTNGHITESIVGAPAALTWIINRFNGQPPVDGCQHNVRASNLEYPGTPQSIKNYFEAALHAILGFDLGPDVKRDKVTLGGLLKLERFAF
Experiment: Quenching of CpLIP2 intrinsic tryptophan fluorescence by flavonols (Stern–Volmer, Lehrer, van't Hoff analysis)
Assay type: binding
Details: 318 K
Entries annotated with measured Ka (association constant)
parameter_measured: Ka (association constant) (L/mol)

> print(dat)
                                smiles.text  unit.name  measured
1      O=c1c(O)c(-c2ccccc2)oc2cc(O)cc(O)c12      L/mol       616
2  O=c1c(O)c(-c2cc(O)c(O)c(O)c2)oc2cc(O)cc(O)c12      L/mol     44.79
3  O=c1c(O)c(-c2ccc(O)c(O)c2)oc2cc(O)cc(O)c12      L/mol      3041
4   O=c1c(O)c(-c2ccc(O)cc2)oc2cc(O)cc(O)c12      L/mol       862
